target.desc: biotinylated human DLL3 protein expressed as a human IgG1 fusion protein (human) (UniProt Q9NYJ7)
Sequence (Q9NYJ7 other isoform, or with tags, fused parts or gaps): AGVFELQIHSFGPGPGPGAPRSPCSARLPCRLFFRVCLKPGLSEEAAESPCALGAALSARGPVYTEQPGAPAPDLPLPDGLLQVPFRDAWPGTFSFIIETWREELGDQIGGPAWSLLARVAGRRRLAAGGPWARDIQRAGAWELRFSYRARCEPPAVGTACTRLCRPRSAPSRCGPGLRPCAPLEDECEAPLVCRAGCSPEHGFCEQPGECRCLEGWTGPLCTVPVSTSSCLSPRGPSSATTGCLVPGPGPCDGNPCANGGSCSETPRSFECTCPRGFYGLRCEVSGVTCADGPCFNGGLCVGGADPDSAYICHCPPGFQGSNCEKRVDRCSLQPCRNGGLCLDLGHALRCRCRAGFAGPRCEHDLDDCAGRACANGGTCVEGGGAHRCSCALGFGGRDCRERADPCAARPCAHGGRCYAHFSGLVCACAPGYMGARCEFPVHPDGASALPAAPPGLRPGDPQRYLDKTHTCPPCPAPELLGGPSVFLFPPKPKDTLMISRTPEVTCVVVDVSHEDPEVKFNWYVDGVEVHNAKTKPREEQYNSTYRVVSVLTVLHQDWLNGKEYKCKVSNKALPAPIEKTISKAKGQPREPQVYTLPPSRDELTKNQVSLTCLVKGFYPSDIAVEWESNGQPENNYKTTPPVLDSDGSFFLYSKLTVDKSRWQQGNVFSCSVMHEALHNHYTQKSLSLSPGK
experiment.description: Octet BLI; biotinylated huDLL3-IgG1 fusion on streptavidin tips; single 50 nM; conditioned medium
Examples of binders with documented pKd follow.
In plain terms, pKd is the concentration in mol/L turned into minus its base-10 logarithm.

Before answering, review these 3 worked examples.
{"binder": "anti-DLL3 trispecific protein 3F05 (protein, part only; not given: CD3 binder and albumin binder, part only) chain, part: EVQLVESGGGLVQPGGSLTLSCAASGSKVSFLSMAWYRQAPGKKRELVAGISTDGSTDYIDSVKGRFTISRDNAKNSVYLQMNSLRAEDTAVYYCYAYRWTTRRTYWGQGTLVTVSSGGGGSGGGSGGGGSGGGSHHHHHH", "pKd": 8.12}
{"binder": "anti-DLL3 trispecific protein 3C03 (protein, part only; not given: anti-CD3 fragment and anti-albumin sdAb, part only) chain, part: EVQLVESGGGLVQPGGSLTLSCAASGSSVRFLSMAWYRQAPGKKRELVAGISRDGSTVYIDSVKGRFTISRDNAKNSVYLQMNSLRAEDTAVYYCYAYRWTTRGTYWGQGTLVTVSSGGGGSGGGSGGGGSGGGSHHHHHH", "pKd": 8.31}
{"binder": "anti-DLL3 trispecific protein 2E010 (protein, part only; not given: anti-CD3 and anti-albumin domains, part only) chain, part: EVQLVESGGGLVQPGGSLTLSCVASGSTSSINAMAWYRRAPGKQRELVAGISSDGSKVYADSVKGRFTISRDNAKNSVYLQMNSLRAEDTAVYYCYYFHTVSGSSMRYWGQGTLVTVSSGGGGSGGGSGGGGSGGGSHHHHHH", "pKd": 8.40}

Now turn to the next binder.
Problem: State the recorded pKd for this entry: anti-DLL3 trispecific protein 3H03 (protein, part only; not given: anti-CD3 fragment and anti-albumin domain, part only) chain, part: EVQLVESGGGLVQPGGSLTLSCAASGSSVRFLSMAWYRQAPGKKRELVAGISTDGSTDYIDSVKGRFTISRDNAKNSVYLQMNSLRAEDTAVYYCYALRWTTRYTYWGQGTLVTVSSGGGGSGGGSGGGGSGGGSHHHHHH
Solution: 8.00
